Reference for the values: PubChem BioAssay AID463193

# PROTOCOL DESCRIPTION: autophagy modulators in MEF cells, primary screen, imaging, high-content, MEF GFP-LC3 (AID 463193);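 further: cell loss after 18 h compound exposure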
# EXPERIMENTAL CONDITIONS: MEF GFP-LC3 puncta imaging, at 10 µM; measured here: cell loss, nuclei count
Screen size: about 190,000 compounds; about 1,900 (1%) were called active. Shown is part of a subset that was picked to be rich in actives.
METRIC NAME: toxicity (%)

| COMPOUND | MEASUREMENT UNIT | OBS VALUE |
| --- | --- | --- |
| CCOc1cc(NC(=O)c2cnccn2)c(OCC)cc1NC(=O)c1ccc(C)cc1 | % | -0.236 |
| O=[N+]([O-])/C(N=Nc1ccccc1)=N\Nc1ccccc1 | % | 8.32 |
| CSc1ccc(CCNC(=O)C2CCN(c3nnc(-n4cccc4)s3)CC2)cc1 | % | 3.56 |
| CCOC(=O)C1CCCN(C(=O)c2cncc(Br)c2)C1 (stereo unspecified) | % | 4.79 |
| O=C(O)CCC(=O)Nc1nc2ccc([N+](=O)[O-])cc2s1 | % | 11.6 |
| CCOc1cc(NC(=O)c2ccccn2)c(OCC)cc1NC(=O)c1ccc(OC)cc1 | % | 23.7 |
| CCn1c(=N)c(C(=O)NCCCOC)cc2c(=O)n3cccc(C)c3nc21 | % | 16.3 |
| CC1=NN(C(=O)CCCc2ccccc2)C(O)(C(F)(F)F)C1 (stereo unspecified) | % | 3.92 |
| CCOc1ccccc1NC(=O)c1cccnc1 | % | 1.42 |
| CCOC(=O)C1CCCN(C(=O)C2CCN(c3nnc(-n4cccc4)s3)CC2)C1 (stereo unspecified) | % | 6.19 |
| CNc1nc2c(C)cccn2c(=O)c1C=Nc1ccc(OC)cc1 | % | 19.6 |
